System: UO-31
assay_procedure: NCI tumour cell line growth inhibition, 48 h
Activity calls are given as the source filed them. Rule as the data show it: active = GI50 up to about 1.1 µM and inactive = higher.
assay_metric: GI50

Some solved entries appear below for comparison.
COC1=CC(=O)c2c(O)c3c(c(O)c2C1=O)C=C(C)OC3O (centres undefined): 4.04 µM (inactive)
O=C1NC(=S)NC1C(Cc1ccccc1)c1ccco1 (centres undefined): > 100 µM (inactive)
CC1(C)CC(=O)C2=C(C1)OC1(CC2c2ccc(Cl)cc2)CC(c2ccc(Cl)cc2)C2=C(CC(C)(C)CC2=O)O1 (centres undefined): 13.6 µM (inactive)
Cc1ccc(Cc2c(=O)[nH]nc3ccccc23)cc1: 58.3 µM (inactive)

Tell us which GI50 value is on record for C[C@@H]1C[C@]2(C[C@@H](C)[C@H]3C(C[C@@]4(C)CCC[C@@H]5C6=C[C@H](CCC34C)OC6=CC(=O)OC5(C)C)O2)OC1=O (some centres undefined)
> 51.5 µM (inactive)

Annotate the compound "O=[N+]([O-])c1ccc(-c2nc(/C=N/N3CCCCC3)cs2)o1" with its measured GI50.
> 100 µM (inactive)

Answer with the recorded GI50 for the compound listed here: "COc1cccc(NC(=O)CSc2nnc(Cc3ccccc3)o2)c1"
> 100 µM (inactive)

Note GI50 for the compound shown: "O=C1C(Cl)=C(Cl)C(=O)C2=C1C1c3ccccc3C2c2ccccc21"
47.6 µM (inactive)

Tell us which GI50 value is on record for "O=C(N/C(=C\c1ccc([N+](=O)[O-])cc1)c1nc2ccccc2s1)c1ccccc1"
24.3 µM (inactive)

Read off the recorded GI50 for CC1=CC(C)C/C=C/C2C3OC3(C)C(C)C3C(Cc4c[nH]c5ccccc45)NC(=O)C23C(=O)C=CC(=O)C1O (centres undefined)
1.96 µM (inactive)

Tell me GI50 reported for "O=C(O)c1nc2ccc(C(F)(F)F)cc2nc1NCc1ccc(Cl)c(Cl)c1"
13.4 µM (inactive)

Supply GI50 value. Item: "COc1cc(C=C2C(=O)NC(=S)NC2=O)cc(OC)c1OC"
> 100 µM (inactive)

Return reported GI50. Input compound: COc1cc(C(O)(CC#N)c2cc3c(cc2Br)OCO3)cc(OC)c1OC (centres undefined)
57.5 µM (inactive)

Read off the recorded GI50 for "Nc1ccc(CCN2CCN(c3cccc(C(F)(F)F)c3)CC2)cc1"
5.74 µM (inactive)

// Input: "O=C(NC12CC3CC(CC(C3)C1)C2)C(=O)c1c[nH]c2ccccc12" . Output its GI50 only.
20 µM (inactive)

For the compound COc1ccc(N2C(=O)C3c4[nH]c5c(C)cccc5c4C4CCC(c5ccccc5)CC4C3C2=O)cc1 (centres undefined) , give its reported GI50.
20.9 µM (inactive)

Answer with the recorded GI50 for the compound listed here: "CN/C(=N\C#N)N(Cc1ccccc1)Cc1ccccc1"
> 100 µM (inactive)

Give the reported value of GI50 for this record: COC1CC(OC2CCC3(C)C(CCC45CCC(C6=CC(=O)OC6)C(C)(CCC43)C5=O)C2)OC(C)C1O (centres undefined)
16.5 µM (inactive)

Tell me measured GI50 for Nc1nc2ccc(OCC(O)CN3CCCCC3)cc2[n+]([O-])n1 (centres undefined) please.
> 100 µM (inactive)

###

System: DU-145
assay_procedure: NCI tumour cell line growth inhibition, 48 h
The source made the active and inactive calls. Cut-off read from the data, not from the text of the source: active = GI50 up to about 1.1 µM and inactive = higher. Where a SMILES comes first, the peptide text is derived from it. [ ]: non-standard residue; d: D form. The star is where a group is joined. Iva = CC[C](C)(N)C(=O)O; Boc = CC(C)(C)OC(=O)*; X54 = C1CCC(=NO*)C1
assay_metric: GI50

Please look at this molecule and report its GI50: CCC(C)(NC(=O)C(C)NC(=O)OC(C)(C)C)C(=O)NC(C)C(=O)NC(C)(CC)C(=O)ON=C1CCCC1 (centres undefined) (Boc-A[Iva]A[Iva]-X54; configuration not given here)
> 100 µM (inactive)

###

Tested on: NCI-H226
assay_procedure: NCI tumour cell line growth inhibition, 48 h
Activity calls are given as the source filed them. No stated cut-off is given here; in the data, active = GI50 up to about 1.1 µM and inactive = higher.
Could you please pick one outcome from this set? active, inactive

Solved entries (count: 2):
CN1C(=O)N(c2ccccc2)C2(CCN(CC3COc4ccccc4O3)CC2)C1=O (stereo unspecified): inactive
O=C(O)c1ccccc1-c1ccccc1C(=O)c1ccccc1: inactive

What was the test verdict on COc1ccc(CC[N+]2(C)COc3cc4oc(=O)cc(C)c4cc3C2)cc1OC (stereo unspecified) ?
inactive

###

System: LOX IMVI
assay_procedure: NCI tumour cell line growth inhibition, 48 h
Activity calls are given as the source filed them. No stated cut-off is given here; in the data, active = GI50 up to about 1.1 µM and inactive = higher.
Form entry, call: pick from TRUE = active, FALSE = inactive

Reference set, count: 3
CN(C)CCNC(=O)c1ccc(Cl)c2cc3ccccc3nc12: TRUE
COc1cc2c(cc1O)CC13CCC(=O)N1CCc1cc(OC)c(O)c-2c13 (configuration not stated): FALSE
O=C(N/C(=C\c1ccc([N+](=O)[O-])cc1)c1nc2ccccc2s1)c1ccccc1: FALSE

Answer briefly: the call reported for Clc1ccc2c(c1)C1C(CO2)C(c2ccccc2)=NN1c1ccccc1 (configuration not stated) in this assay.
FALSE

Hi, do you know how "CCOC(=O)/C(C#N)=C\c1ccc(N(CCC(=O)O)CCC(=O)O)c(I)c1" came out in this test?
FALSE

Outcome logged for "COc1ccc2c(c1)[n+]([O-])c(C(=O)C/C(=N/OCCCc1ccccc1)C(=O)NC13CC4CC(CC(C4)C1)C3)c(C)[n+]2[O-]" in this assay:
FALSE

Recorded test outcome, item Cc1cc(O)nc(NNC(C#N)c2c(O)ccc3ccccc23)n1 (configuration not stated)
FALSE

Any idea what this test logged for "Cc1c(O)c(=O)ccn1CCc1ccc(O)cc1" ?
FALSE

Give the logged outcome of this assay for the following compound: "O=c1nc2n(CCO)c(-c3ccccc3)c(-c3ccccc3)nc-2c(=O)[nH]1"
FALSE

###

Tested on: KM12
assay_procedure: NCI tumour cell line growth inhibition, 48 h
Active and inactive are the calls of the source. No stated cut-off is given here; in the data, active = GI50 up to about 1.1 µM and inactive = higher.
The entries below are paired with their reported GI50.

Give the value of GI50 reported for the following: "NN/C(Cc1ccccc1)=N/NC(N)=S"
96.4 µM (inactive)

Please supply the value of reported GI50 for the item "CCOC(=O)c1ccc(N2C(=O)/C(=C/c3ccc(N(CCC#N)CCC#N)cc3)N=C2c2cc([N+](=O)[O-])ccc2Cl)cc1"
> 100 µM (inactive)

Report measured GI50; entry is "CC1=C(SC#N)S(=O)(=O)N(c2ccccc2)C(C)=C1SC#N"
60.4 µM (inactive)

Identify the reported GI50 for the following entry. N#CC1(C#N)C(c2ccccc2)C=CC(c2ccc([N+](=O)[O-])cc2)C1(C#N)C#N (stereo not given)
22.1 µM (inactive)

Name the recorded GI50 of the item "Cc1ccc(Cc2c(=O)[nH]nc3ccccc23)cc1" in your answer.
> 100 µM (inactive)

###

System: KM12
assay_procedure: NCI tumour cell line growth inhibition, 48 h
The source made the active and inactive calls. Cut-off read from the data, not from the text of the source: active = GI50 up to about 1.1 µM and inactive = higher.
In this exercise, the only acceptable responses are 1 = active, 0 = inactive

Example entries and their recorded answers appear below.
CCOC(=O)C1Cc2ccc3c4c(ccc(c24)C1)CC(C(=O)OCC)C3: 0
COc1ccc(NC(=O)c2cc(NC(=O)/C=C/c3ccccc3)c(OC)c(OC)c2)cc1: 0
O=C1O[C@H]2[C@H](OC(=O)c3cc(O)c(O)c(O)c3)[C@@H](OC(=O)c3cc(O)c(O)c4c3[C@@H]3C1=CC(=O)C(O)(O)C3(O)O4)[C@H](OC(=O)c1cc(O)c(O)c(O)c1)O[C@@H]2COC(=O)c1cc(O)c(O)c(O)c1 (stereo partly drawn) [TERCHEBIN]: 0
NCCOCCOCC(=O)O: 0

Please state the recorded outcome for this compound: C[C@@H]1C[C@]2(C[C@@H](C)[C@H]3C(C[C@@]4(C)CCC[C@@H]5C6=C[C@H](CCC34C)OC6=CC(=O)OC5(C)C)O2)OC1=O (stereo partly drawn)
0

# outcome recorded in this test, key = Clc1ccc2c(c1)C1C(CO2)C(c2ccccc2)=NN1c1ccccc1 (stereo not drawn)
0

Please state the recorded outcome for this compound: "C/C(=N\NC(=[Se])N1CCN(c2ccccn2)CC1)c1ccccn1"
1

Record lookup: outcome of this test for "COc1cc2cc[n+]3c(C)c4cc(OC)c(OC)cc4c([O-])c3c2cc1OC" ?
0

###

Tested on: CCRF-CEM
assay_procedure: NCI tumour cell line growth inhibition, 48 h
Active and inactive are the calls of the source. Rule as the data show it: active = GI50 up to about 1.1 µM and inactive = higher.
Below, each entry is listed with its recorded GI50.

c1ccc2c(c1)cc1n2CCc2c-1[nH]c1ccccc21: > 10 µM (inactive)
CC(=O)c1ccc(Oc2c3ccccc3nc3ccccc23)cc1: 2.82 µM (inactive)
CC(Oc1ccc(Oc2cnc3ccc(Cl)cc3n2)cc1)C(=O)O (centres undefined): > 74.1 µM (inactive)
COc1ccc(N2C(=O)C3c4[nH]c5c(C)cccc5c4C4CCC(c5ccccc5)CC4C3C2=O)cc1 (centres undefined): 1.28 µM (inactive)

Report measured GI50 on CCRF-CEM; entry: CCCC(=O)NC(Nc1ccc(S(=O)(=O)Nc2cc(C)on2)cc1)(C(=O)OCC)C(F)(F)F (centres undefined)
> 100 µM (inactive)

// output GI50; input "c1ccc2c(c1)ccc1nc(-c3ccc4c(c3)OCO4)c3c(c12)CCCC3" ; system CCRF-CEM
25.9 µM (inactive)

Would you please give the reported GI50 of "O=C1c2cc([N+](=O)[O-])cnc2S(=O)(=O)N1c1ccc(Br)cc1" with CCRF-CEM?
> 100 µM (inactive)

Please report GI50 with CCRF-CEM for item "CC[C@]12C=CCN3CC[C@@]4(c5cc(Br)c(OC)cc5N(C)[C@H]4[C@@](O)(C(=O)N[C@@H](Cc4ccc(O)cc4)C(=O)OC)[C@@H]1O)[C@@H]32" .
21.6 µM (inactive)

State, for CCRF-CEM, measured GI50 of the molecule listed here: O=[N+]([O-])c1ccc(N2N=C(c3ccc4ccccc4c3O)CC2c2ccc(Cl)cc2Cl)c([N+](=O)[O-])c1 (centres undefined)
12.9 µM (inactive)
